Where these numbers come from: patent US9862730B2

tested target: PAR4 (Homo sapiens (Human))
Sequence (Q96RI0 18-385): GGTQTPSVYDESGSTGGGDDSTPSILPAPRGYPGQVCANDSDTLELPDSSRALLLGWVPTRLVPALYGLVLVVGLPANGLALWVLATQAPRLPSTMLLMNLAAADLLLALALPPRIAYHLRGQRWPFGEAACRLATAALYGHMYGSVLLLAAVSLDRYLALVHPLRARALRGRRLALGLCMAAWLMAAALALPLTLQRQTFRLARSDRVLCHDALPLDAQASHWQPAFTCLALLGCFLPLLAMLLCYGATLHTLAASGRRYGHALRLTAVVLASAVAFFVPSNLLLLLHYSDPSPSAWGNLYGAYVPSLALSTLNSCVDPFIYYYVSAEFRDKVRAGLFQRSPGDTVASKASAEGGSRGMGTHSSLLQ
test protocol: Gamma thrombin induced platelet aggregation assay in PRP (PRP assay)
Assay type: cell-based
pIC50: −log10 of the molar value.
Listed next: entries and their corresponding pIC50.
measured metric: pIC50

COc1cc(OCc2cccc(OCc3cccc(OCc4ccccc4)c3)c2)c2cc(-c3cn4nc(OC)sc4n3)oc2c1 [Example 383] | 6.23
COc1cc(OCc2cccc(OCc3ccnc(Cl)c3)c2)c2cc(-c3cn4nc(OC)sc4n3)oc2c1 [Example 320] | 7.12
COc1ccc(Br)c2cc(-c3cn4nc(SC)sc4n3)oc12 [Example 282] | 5.25
COc1cc(OCc2cccc(OCc3ccccc3CCc3ccccc3)c2)c2cc(-c3cn4nc(OC)sc4n3)oc2c1 [Example 364] | 5.24
COc1cc(OCc2cccc(OCc3cccc(F)c3)c2)c2cc(-c3cn4nc(OC)sc4n3)oc2c1 [Example 327] | 7.42
COc1cc(OCc2cccc(OCc3cc(F)cc(C(F)(F)F)c3)c2)c2cc(-c3cn4nc(OC)sc4n3)oc2c1 [Example 356] | 6.96
COc1cc(OCc2cc(Cl)cc(OCc3ccccc3)c2)c2cc(-c3cn4nc(OC)sc4n3)oc2c1 [Example 402] | 6.82
COc1cc(OCc2cccc(OCc3ccccc3F)c2)c2cc(-c3cn4nc(OC)sc4n3)oc2c1 [Example 318] | 7.44
COc1cc(OCc2cccc(OC(=O)c3ccccc3)c2)c2cc(-c3cn4nc(OC)sc4n3)oc2c1 [Example 355] | 7.48
COc1cc(OCc2cccc(OCc3ccc(F)cc3)c2)c2cc(-c3cn4nc(OC)sc4n3)oc2c1 [Example 346] | 6.83
COc1cc(OCc2cccc(OCc3ccccc3C)c2)c2cc(-c3cn4nc(OC)sc4n3)oc2c1 [Example 363] | 7.42
